Data provenance: patent US10526319B2

These records show IC50 for PDE1C (Homo sapiens).
Lab note: write values as number then unit, every time.

Consider the worked cases shown below.
COc1ccc2c(N3CC[C@@H]4OCCC43)ncnc2c1Br (single isomer, unassigned) [10 Stereoisomer 1] = 11 nM
COc1ccc2c(NC3(C)CCOC3C)ncnc2c1F (single isomer, unassigned) [17 Stereoisomer 1] = 98 nM
COc1ccc2c(NC3CCOC3)ncnc2c1F (single isomer, unassigned) [16 Stereoisomer 2] = 230 nM

// moving on: another record for IC50
Q: # get_value(readout= IC50, system= PDE1C (Homo sapiens)) for COc1ccc2c(NC3(C)CCOC3C)ncnc2c1Cl (single isomer, unassigned) [12 Stereoisomer 3]
Result: 14 nM

----------
Target: PDE1A (Homo sapiens)
Sequence (P54750 whole entry): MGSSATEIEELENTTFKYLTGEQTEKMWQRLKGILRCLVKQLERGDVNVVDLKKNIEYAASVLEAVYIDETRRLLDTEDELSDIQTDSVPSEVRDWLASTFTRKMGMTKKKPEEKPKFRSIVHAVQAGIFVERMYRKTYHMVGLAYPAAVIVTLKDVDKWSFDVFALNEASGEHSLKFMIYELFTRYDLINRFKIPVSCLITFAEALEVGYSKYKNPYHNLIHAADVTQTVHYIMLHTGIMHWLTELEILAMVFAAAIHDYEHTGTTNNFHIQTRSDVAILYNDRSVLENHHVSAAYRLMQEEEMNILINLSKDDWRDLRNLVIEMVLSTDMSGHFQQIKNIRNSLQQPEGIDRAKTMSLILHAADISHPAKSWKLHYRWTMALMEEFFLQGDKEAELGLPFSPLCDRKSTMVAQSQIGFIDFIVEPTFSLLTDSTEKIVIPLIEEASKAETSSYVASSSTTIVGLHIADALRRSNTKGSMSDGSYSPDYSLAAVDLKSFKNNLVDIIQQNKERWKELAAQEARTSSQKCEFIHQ
Doc: threshold 200 nM (exclusive). Items with IC50 beneath it return Y; others return N.

Some solved entries appear below for comparison.
COc1ccc2c(N3CC[C@@H]4OCCC43)ncnc2c1F (single isomer, unassigned) [8 Stereoisomer 1] = Y
COc1ccc2c(N(C)C3CCOC3C)ncnc2c1Cl (single isomer, unassigned) [14 Stereoisomer 1] = N
COc1ccc2c(N(C)C3CCOC3)ncnc2c1Cl (single isomer, unassigned) [6 stereoisomer 1] = N

Q: Below 200 nM on IC50? Entry COc1ccc2c(N(C)C3CCOC3C)ncnc2c1Cl (single isomer, unassigned) [14 Stereoisomer 2]
Result: Y

Q: Now try COc1ccc2c(N(C)C3(C)CCOC3C)ncnc2c1Cl (single isomer, unassigned) [13 Stereoisomer 2] .
Result: N

Q: Param item: COc1ccc2c(N3CC[C@@H]4OCCC43)ncnc2c1Cl (single isomer, unassigned) [9 Stereoisomer 2]
Result: N

----------
For each record, write down the corresponding IC50.
Target: UniProt P54750
Show the value, then the unit it is measured in.

Previously resolved entries follow.
COc1ccc2c(NC3(C)CCOC3C)ncnc2c1F (single isomer, unassigned) [17 Stereoisomer 2] = 73 nM
COc1ccc2c(N(C)C3CCOC3C)ncnc2c1F (single isomer, unassigned) [18 Stereoisomer 2] = 2470 nM

Turning now to a further record.
Q: Entry COc1ccc2c(N(C)C3(C)CCOC3C)ncnc2c1F (single isomer, unassigned) [19 Stereoisomer 2] , system UniProt P54750: what IC50 was measured?
Result: 185 nM

----------
Target: PDE1B (Homo sapiens, UniProt Q01064)
Sequence (Q01064 whole entry): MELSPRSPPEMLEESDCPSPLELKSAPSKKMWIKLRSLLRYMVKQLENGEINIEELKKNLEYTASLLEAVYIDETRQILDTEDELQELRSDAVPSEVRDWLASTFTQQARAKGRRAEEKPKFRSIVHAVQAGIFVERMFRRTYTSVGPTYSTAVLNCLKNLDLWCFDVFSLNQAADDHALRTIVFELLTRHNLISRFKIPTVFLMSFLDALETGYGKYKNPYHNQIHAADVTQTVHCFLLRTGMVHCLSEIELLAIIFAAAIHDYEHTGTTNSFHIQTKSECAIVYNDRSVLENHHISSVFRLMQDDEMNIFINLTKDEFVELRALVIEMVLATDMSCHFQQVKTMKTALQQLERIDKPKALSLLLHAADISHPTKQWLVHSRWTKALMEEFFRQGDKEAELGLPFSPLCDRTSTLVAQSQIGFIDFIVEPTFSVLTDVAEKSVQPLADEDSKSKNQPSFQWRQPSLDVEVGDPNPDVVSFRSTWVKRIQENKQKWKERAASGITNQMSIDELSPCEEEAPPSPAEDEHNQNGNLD
What pIC50 was measured for each of the following?
One number for each entry, as −log10 of the molar value.

Use these answered entries as a reference point.
COc1ccc2c(N(C)C3(C)CCOC3)ncnc2c1F (single isomer, unassigned) [15 Stereoisomer 2] = 7.33
COc1ccc2c(N3CC[C@@H]4OCCC43)ncnc2c1Cl (single isomer, unassigned) [9 Stereoisomer 2] = 5.92
COc1ccc2c(NC3CCOC3)ncnc2c1F (single isomer, unassigned) [16 Stereoisomer 1] = 6.37

Q: Quick one: pIC50 of COc1ccc2c(N(C)C3CCOC3C)ncnc2c1Cl (single isomer, unassigned) [14 Stereoisomer 4] ?
Result: 7.52

----------
Recorded IC50 values (PDE1A (Homo sapiens)) are given below.
Give bare numbers, in nM.

COc1ccc2c(NC3CCOC3C)ncnc2c1Cl (single isomer, unassigned) [5 stereoisomer 2] = 230

Give measured IC50 for every item shown.
1. COc1ccc2c(N(C)C3(C)CCOC3C)ncnc2c1Cl (single isomer, unassigned) [13 Stereoisomer 1]
2. COc1ccc2c(N(C)C3(C)CCOC3C)ncnc2c1F (single isomer, unassigned) [19 Stereoisomer 3]

Result:
1. 2550
2. 2490

----------
Target: PDE1C (Homo sapiens)
Sequence (Q14123 whole entry): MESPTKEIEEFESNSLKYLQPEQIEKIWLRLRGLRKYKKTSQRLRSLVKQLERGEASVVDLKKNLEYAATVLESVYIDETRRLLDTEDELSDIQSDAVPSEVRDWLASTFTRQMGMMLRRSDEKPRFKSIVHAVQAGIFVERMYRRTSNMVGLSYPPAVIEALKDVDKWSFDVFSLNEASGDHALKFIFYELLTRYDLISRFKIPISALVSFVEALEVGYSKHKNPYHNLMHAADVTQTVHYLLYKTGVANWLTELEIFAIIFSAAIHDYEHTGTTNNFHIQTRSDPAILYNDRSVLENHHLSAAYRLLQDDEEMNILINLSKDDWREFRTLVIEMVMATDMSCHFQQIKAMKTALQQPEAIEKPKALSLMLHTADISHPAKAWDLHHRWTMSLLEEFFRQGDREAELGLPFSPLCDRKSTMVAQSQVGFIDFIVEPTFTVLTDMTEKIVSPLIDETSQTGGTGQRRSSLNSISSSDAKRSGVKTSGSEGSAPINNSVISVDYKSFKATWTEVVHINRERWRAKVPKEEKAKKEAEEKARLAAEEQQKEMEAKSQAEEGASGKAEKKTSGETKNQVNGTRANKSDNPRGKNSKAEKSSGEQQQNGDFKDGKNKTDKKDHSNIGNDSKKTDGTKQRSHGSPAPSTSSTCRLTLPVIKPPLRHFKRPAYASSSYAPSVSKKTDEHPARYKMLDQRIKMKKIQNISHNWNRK
# if measured IC50 < 60 nM: 1.0  # else: 0.0

Q: Check if IC50 falls below 60 nM for COc1ccc2c(NC3(C)CCOC3C)ncnc2c1Cl (single isomer, unassigned) [12 Stereoisomer 2] .
Result: 1.0

Q: What do you have for COc1ccc2c(NC3CCOC3)ncnc2c1F (single isomer, unassigned) [16 Stereoisomer 1] ?
Result: 0.0

Q: Also COc1ccc2c(NC3(C)CCOC3)ncnc2c1Cl (single isomer, unassigned) [7 stereoisomer 2] ?
Result: 1.0

----------
Form: system (PDE1B (Homo sapiens)), quantity (pIC50), values below.
Numbers only, as −log10 of the molar value.

COc1ccc2c(NC3CCOC3C)ncnc2c1Cl (single isomer, unassigned) [5 stereoisomer 4] = 7.24

Would you be so kind as to report pIC50 for each listed record?
1. COc1ccc2c(N(C)C3CCOC3C)ncnc2c1Cl (single isomer, unassigned) [14 Stereoisomer 1]
2. COc1ccc2c(N(C)C3CCOC3C)ncnc2c1F (single isomer, unassigned) [18 Stereoisomer 1]
3. COc1ccc2c(NC3(C)CCOC3C)ncnc2c1F (single isomer, unassigned) [17 Stereoisomer 4]
4. COc1ccc2c(N(C)C3(C)CCOC3C)ncnc2c1F (single isomer, unassigned) [19 Stereoisomer 3]
5. COc1ccc2c(N(C)C3(C)CCOC3C)ncnc2c1Cl (single isomer, unassigned) [13 Stereoisomer 2]
6. COc1ccc2c(NC3CCOC3)ncnc2c1F (single isomer, unassigned) [16 Stereoisomer 2]

Result:
[6.29, 6.29, 6.85, 6.38, 7.47, 7.09]

----------
Heads up, these compounds all have pIC50 values measured for PDE1B (Homo sapiens, UniProt Q01064).
Answers are plain numbers, as −log10 of the molar value.

Record excerpt, results attached:
COc1ccc2c(N3CC[C@@H]4OCCC43)ncnc2c1Cl (single isomer, unassigned) [9 Stereoisomer 1] = 7.40
COc1ccc2c(NC3(C)CCOC3C)ncnc2c1Cl (single isomer, unassigned) [12 Stereoisomer 1] = 6.70
COc1ccc2c(NC3CCOC3C)ncnc2c1Cl (single isomer, unassigned) [5 stereoisomer 1] = 7.31
COc1ccc2c(N(C)C3CCOC3C)ncnc2c1F (single isomer, unassigned) [18 Stereoisomer 4] = 7.22
COc1ccc2c(N3CC[C@@H]4OCCC43)ncnc2c1F (single isomer, unassigned) [8 Stereoisomer 2] = 5.66

Answer for every listed entry: what is its pIC50? The entries follow.
1. COc1ccc2c(NC3(C)CCOC3C)ncnc2c1F (single isomer, unassigned) [17 Stereoisomer 2]
2. COc1ccc2c(N(C)C3(C)CCOC3C)ncnc2c1F (single isomer, unassigned) [19 Stereoisomer 4]

Result:
1. 8.30
2. 8.00

----------
So I've got pIC50 readings for PDE1C (Homo sapiens, UniProt Q14123), take a look.
Answers are plain numbers, as −log10 of the molar value.

Fill in pIC50 for each of the 4 compounds listed.
1. COc1ccc2c(N(C)C3CCOC3C)ncnc2c1Cl (single isomer, unassigned) [14 Stereoisomer 4]
2. COc1ccc2c(N(C)C3CCOC3)ncnc2c1F (single isomer, unassigned) [2 Stereoisomer 2]
3. COc1ccc2c(NC3(C)CCOC3C)ncnc2c1Cl (single isomer, unassigned) [12 Stereoisomer 1]
4. COc1ccc2c(NC3(C)CCOC3)ncnc2c1F (single isomer, unassigned) [1 Stereoisomer 2]

Result:
[7.85, 7.12, 6.89, 6.59]

Give pIC50 for all compounds that follow.
1. COc1ccc2c(NC3CCOC3C)ncnc2c1Cl (single isomer, unassigned) [5 stereoisomer 1]
2. COc1ccc2c(NC3(C)CCOC3C)ncnc2c1Cl (single isomer, unassigned) [12 Stereoisomer 4]
3. COc1ccc2c(NC3(C)CCOC3C)ncnc2c1F (single isomer, unassigned) [17 Stereoisomer 2]

Result:
1. 7.57
2. 8.40
3. 7.66

----------
PDE1B (Homo sapiens, UniProt Q01064) data, read-out IC50
Give bare numbers, in nM.

Record excerpt, results attached:
COc1ccc2c(NC3(C)CCOC3C)ncnc2c1Cl (single isomer, unassigned) [12 Stereoisomer 3] = 21
COc1ccc2c(NC3(C)CCOC3C)ncnc2c1Cl (single isomer, unassigned) [12 Stereoisomer 4] = 7

For every record below, what is its IC50?
1. COc1ccc2c(N3CC[C@@H]4OCCC43)ncnc2c1F (single isomer, unassigned) [8 Stereoisomer 1]
2. COc1ccc2c(NC3CCOC3C)ncnc2c1F (single isomer, unassigned) [3 Stereoisomer 1]

Result:
21
650

----------
PDE1B (Homo sapiens): reported IC50 for various compounds.
Give bare numbers, in nM.

Example compounds with recorded IC50:
COc1ccc2c(NC3(C)CCOC3C)ncnc2c1F (single isomer, unassigned) [17 Stereoisomer 3] = 100
COc1ccc2c(N(C)C3(C)CCOC3C)ncnc2c1Cl (single isomer, unassigned) [13 Stereoisomer 1] = 410
COc1ccc2c(N3CC[C@@H]4OCCC43)ncnc2c1Br (single isomer, unassigned) [10 Stereoisomer 1] = 49
COc1ccc2c(N(C)C3CCOC3)ncnc2c1Cl (single isomer, unassigned) [6 stereoisomer 2] = 15
COc1ccc2c(NC3(C)CCOC3C)ncnc2c1Cl (single isomer, unassigned) [12 Stereoisomer 2] = 65
COc1ccc2c(NC3CCOC3C)ncnc2c1Cl (single isomer, unassigned) [5 stereoisomer 3] = 460
COc1ccc2c(NC3(C)CCOC3)ncnc2c1Cl (single isomer, unassigned) [7 stereoisomer 1] = 23
COc1ccc2c(N(C)C3CCOC3)ncnc2c1F (single isomer, unassigned) [2 Stereoisomer 1] = 300
COc1ccc2c(N(C)C3CCOC3C)ncnc2c1F (single isomer, unassigned) [18 Stereoisomer 3] = 47
COc1ccc2c(NC3(C)CCOC3)ncnc2c1F (single isomer, unassigned) [1 Stereoisomer 2] = 65

Batch request: IC50 per item, same order as input.
1. COc1ccc2c(N(C)C3(C)CCOC3)ncnc2c1Cl (single isomer, unassigned) [11 Stereoisomer 2]
2. COc1ccc2c(N(C)C3CCOC3C)ncnc2c1Cl (single isomer, unassigned) [14 Stereoisomer 2]
3. COc1ccc2c(N(C)C3(C)CCOC3C)ncnc2c1F (single isomer, unassigned) [19 Stereoisomer 2]

Result:
[31, 18, 32]

Q: Dear colleague, I am looking for the recorded IC50 of the following compound: COc1ccc2c(NC3CCOC3C)ncnc2c1F (single isomer, unassigned) [3 Stereoisomer 2]
Result: 87
